Assay: refractive index (Na D-line) (dimensionless)
Details: 298.15 K; 101.3 kPa; Liquid; Standard Abbe refractometry
Metric: refractive index
Just the number, please, no unit attached.

Sample records with refractive index:
# Compound, Observed
measured = [
    ("COCC(C)O (stereo not given)", 1.4024),
    ("COCC(C)OC(C)=O (stereo not given) [1-methoxy-2-propyl acetate]", 1.4),
    ("COC(C)=O [methyl ethanoate]", 1.3596),
    ("CO", 1.3269),
]

refractive index reported for this compound CC(C)O : 1.375
